Target: T1, ErbB-2/3 receptor-Ig fusion (human, UniProt P04626 23-652; P21860 20-643)
T1 construct: extracellular domain;range 224-C-terminus; Co-expressed in HEK-293; also called ErbB-2/3-Ig; 2/3-heterodimer; not shown: human IgG heavy chain constant region from His224 (hinge) on
Assay: phage ELISA; soluble ErbB-2/3-Ig competes phage off plate-bound ErbB-2/3-Ig
pEC50: −log10 of the molar value.
propertyLabel: pEC50

1) HRG4: HRG-β1 147-227 displayed on phage, fused to pIII 247 (ligand, phage M13, range 247-C-terminus; Monovalent phage display; also called pHRG4-g3) YVSSESPIRISVSTEGANTSSSTSTSTTGTSHLVKCAEKEKTFCVNGGECFMVKDLSNPSRYLCKCPNEFTGDRCQNYVMAGGSGGGSGSGDFDYEKMANANKGAMTENADENALQSDAKGKLDSVATDYGAAIDGFIGDVSGLANGNGATGDFAGSNSQMAQVGDGDNSPLMNNFRQYLPSLPQSVECRPFVFSAGKPYEFSIDCDKINLFRGVFAFLLYVATFMYVFSTFANILRNKES	7.42
2) HRG2: HRG-β1 177-244 displayed on phage, fused to pIII 247 (ligand, phage M13, range 247-C-terminus; Monovalent phage display; also called pHRG2-g3) SHLVKCAEKEKTFCVNGGECFMVKDLSNPSRYLCKCPNEFTGDRCQNYVMASFYKHLGIEFMEAEELYGGSGGGSGSGDFDYEKMANANKGAMTENADENALQSDAKGKLDSVATDYGAAIDGFIGDVSGLANGNGATGDFAGSNSQMAQVGDGDNSPLMNNFRQYLPSLPQSVECRPFVFSAGKPYEFSIDCDKINLFRGVFAFLLYVATFMYVFSTFANILRNKES	8.22
3) HRG8: wild-type HRG-β1 EGF (HRG-β1 177-228) displayed on phage, linker to pIII 323 (ligand, phage M13, range 323-C-terminus; Monovalent phage display; also called pHRG8-g3; wild-type HRG-β1 EGF phage) SHLVKCAEKEKTFCVNGGECFMVKDLSNPSRYLCKCPNEFTGDRCQNYVMASGGGSGGGSGGGSNSQMAQVGDGDNSPLMNNFRQYLPSLPQSVECRPFVFSAGKPYEFSIDCDKINLFRGVFAFLLYVATFMYVFSTFANILRNKES	7.96
4) HRG7: HRG-β1 177-228 displayed on phage, fused to pIII 247 (ligand, phage M13, range 247-C-terminus) SHLVKCAEKEKTFCVNGGECFMVKDLSNPSRYLCKCPNEFTGDRCQNYVMASGGSGGGSGSGDFDYEKMANANKGAMTENADENALQSDAKGKLDSVATDYGAAIDGFIGDVSGLANGNGATGDFAGSNSQMAQVGDGDNSPLMNNFRQYLPSLPQSVECRPFVFSAGKPYEFSIDCDKINLFRGVFAFLLYVATFMYVFSTFANILRNKES	7.38
